test: Plasma pharmacokinetics following single dose; format: in vivo; details: both, human, oral
endpoint_label: Tmax

{"columns": ["smiles_representation", "endpoint_label", "result"],
 "data": [
  ["C[C@@]1(c2cc(NC(=O)c3ccc(C#N)cn3)ccc2F)C=CSC(N)=N1", "Tmax", "0.75 to 2 h"]
]}

###

test: Plasma and urine pharmacokinetics following multiple dosing; details: human, in vivo, Mean renal clearance, day 14

{"columns": ["smiles_representation", "CL renal"],
 "data": [
  ["C[C@@]1(c2cc(NC(=O)c3ccc(C#N)cn3)ccc2F)C=CSC(N)=N1", "1.92 mL/min"]
]}

###

assay: CSF pharmacokinetics following multiple dosing; conditions: both, human, in vivo

{"columns": ["smiles_representation", "Tmax"],
 "data": [
  ["C[C@@]1(c2cc(NC(=O)c3ccc(C#N)cn3)ccc2F)C=CSC(N)=N1", "~4 h"]
]}

###

test: Plasma and urine pharmacokinetics following multiple dosing; conditions: both, human, in vivo

{"columns": ["smiles_representation", "half-life"],
 "data": [
  ["C[C@@]1(c2cc(NC(=O)c3ccc(C#N)cn3)ccc2F)C=CSC(N)=N1", "14.4 to 18.5 h"]
]}
